# target under test: TrkC G623R (Homo sapiens, UniProt Q16288, G623R/S70N)
# Sequence (Q16288 32-839 S70N/G623R): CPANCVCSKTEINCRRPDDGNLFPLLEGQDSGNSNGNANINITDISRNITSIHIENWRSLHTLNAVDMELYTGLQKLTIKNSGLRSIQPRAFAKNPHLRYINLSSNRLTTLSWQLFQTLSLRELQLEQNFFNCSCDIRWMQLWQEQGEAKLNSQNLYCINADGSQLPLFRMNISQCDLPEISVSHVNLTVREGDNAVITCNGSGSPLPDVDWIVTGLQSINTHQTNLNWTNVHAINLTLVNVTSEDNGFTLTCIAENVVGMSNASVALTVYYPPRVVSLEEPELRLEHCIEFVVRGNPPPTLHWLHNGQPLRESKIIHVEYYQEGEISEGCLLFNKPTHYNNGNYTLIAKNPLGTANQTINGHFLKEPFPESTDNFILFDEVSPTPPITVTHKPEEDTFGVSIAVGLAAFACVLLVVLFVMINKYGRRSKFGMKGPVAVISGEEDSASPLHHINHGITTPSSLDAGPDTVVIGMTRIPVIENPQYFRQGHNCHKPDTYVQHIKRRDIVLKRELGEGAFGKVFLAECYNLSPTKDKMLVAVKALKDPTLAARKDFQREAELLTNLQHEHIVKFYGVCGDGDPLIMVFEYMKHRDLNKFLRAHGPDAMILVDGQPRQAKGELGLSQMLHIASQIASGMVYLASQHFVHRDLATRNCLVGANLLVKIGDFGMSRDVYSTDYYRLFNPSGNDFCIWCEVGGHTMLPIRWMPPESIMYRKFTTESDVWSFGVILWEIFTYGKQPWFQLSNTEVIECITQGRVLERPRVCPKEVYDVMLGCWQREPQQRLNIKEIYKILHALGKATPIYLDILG
# procedure details: Trk enzyme assay ([33P] incorporation into poly-EAY)
# Assay type: biochemical
# recorded conditions: mutant TrkC G623R enzyme; 22° C., 60 minutes
Measured IC50, listed per entry for reference.

Please review the entries below; each comes with its answer.
[[record]]
compound = "O=C1OCCOc2ncc(F)cc2[C@H]2CCCN2c2ccn3ncc1c3n2 [Compound 22]"
target_under_test = "TrkC G623R (Homo sapiens, UniProt Q16288, G623R/S70N)"
measured_value = "1.5 nM"

[[record]]
compound = "NC(=O)Nc1cnc2ccc(N3CCC[C@@H]3c3cc(F)ccc3F)nn12 [Compound 3]"
target_under_test = "TrkC G623R (Homo sapiens, UniProt Q16288, G623R/S70N)"
measured_value = "55.7 nM"

[[record]]
compound = "CNC(=O)Nc1cnc2ccc(N3CCC[C@@H]3c3cc(F)ccc3F)nn12 [Compound 4]"
target_under_test = "TrkC G623R (Homo sapiens, UniProt Q16288, G623R/S70N)"
measured_value = "70.8 nM"

[[record]]
compound = "CC1(O)CN(C(=O)Nc2cnn3ccc(N4CCC[C@@H]4c4cc(F)ccc4Cl)nc23)C1 [Compound 10]"
target_under_test = "TrkC G623R (Homo sapiens, UniProt Q16288, G623R/S70N)"
measured_value = "101 nM"

[[record]]
compound = "O=C1NCC(F)(F)COc2ncc(F)cc2[C@H]2CCCN2c2ccn3ncc1c3n2 [Compound 23]"
target_under_test = "TrkC G623R (Homo sapiens, UniProt Q16288, G623R/S70N)"
measured_value = "2.1 nM"

[[record]]
compound = "O=C(Nc1cnc2ccc(N3CCC[C@@H]3c3cc(F)ccc3F)nn12)N1CC(O)C1 [Compound 1]"
target_under_test = "TrkC G623R (Homo sapiens, UniProt Q16288, G623R/S70N)"
measured_value = "29.3 nM"

[[record]]
compound = "O=C(Nc1cnn2ccc(N3CCC[C@@H]3c3cc(F)ccc3F)nc12)N1CC(O)C1 [Compound 5]"
target_under_test = "TrkC G623R (Homo sapiens, UniProt Q16288, G623R/S70N)"
measured_value = "95 nM"


Per the record, CC1(C)CNC(=O)c2cnn3ccc(nc23)N2CCC[C@@H]2c2cc(F)cnc2OC1 [Compound 25] has IC50 of 4.7 nM

====

# target under test: TrkA V573M (Homo sapiens, UniProt P04629, V573M)
# Sequence (P04629 33-796 V573M): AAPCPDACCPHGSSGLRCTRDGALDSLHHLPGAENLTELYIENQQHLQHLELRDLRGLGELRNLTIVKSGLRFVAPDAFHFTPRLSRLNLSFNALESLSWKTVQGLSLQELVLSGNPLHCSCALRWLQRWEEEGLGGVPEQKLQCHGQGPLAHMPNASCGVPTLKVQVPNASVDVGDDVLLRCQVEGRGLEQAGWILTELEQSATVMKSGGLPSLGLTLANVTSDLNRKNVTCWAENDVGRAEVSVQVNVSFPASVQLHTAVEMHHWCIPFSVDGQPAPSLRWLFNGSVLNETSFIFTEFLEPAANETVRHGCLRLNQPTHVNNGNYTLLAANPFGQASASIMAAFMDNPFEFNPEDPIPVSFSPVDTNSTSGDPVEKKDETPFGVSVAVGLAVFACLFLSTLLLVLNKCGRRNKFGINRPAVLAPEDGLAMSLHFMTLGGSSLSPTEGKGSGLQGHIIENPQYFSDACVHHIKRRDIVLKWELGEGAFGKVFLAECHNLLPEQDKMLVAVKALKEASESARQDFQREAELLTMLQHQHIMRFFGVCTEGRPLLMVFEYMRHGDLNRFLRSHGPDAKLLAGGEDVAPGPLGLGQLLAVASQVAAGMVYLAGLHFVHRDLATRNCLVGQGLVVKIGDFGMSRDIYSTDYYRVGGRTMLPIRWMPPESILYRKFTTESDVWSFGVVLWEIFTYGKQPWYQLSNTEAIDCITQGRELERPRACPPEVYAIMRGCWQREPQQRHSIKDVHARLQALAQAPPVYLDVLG
# procedure details: Trk enzyme assay ([33P] incorporation into poly-EAY)
# Assay type: biochemical
# recorded conditions: mutant TrkA V573M enzyme; 22° C., 60 minutes
Measured IC50, listed per entry for reference.

[[record]]
molecular_string = "O=C1NC[C@H](O)COc2ccc(F)cc2[C@H]2CC(F)(F)CN2c2ccn3ncc1c3n2"
measured_value = "< 5 nM"

[[record]]
molecular_string = "O=C1NC[C@@H](O)COc2ncc(F)cc2[C@H]2CCCN2c2ccn3ncc1c3n2"
measured_value = "< 5 nM"

[[record]]
molecular_string = "O=C1NCC(F)(F)COc2ncc(F)cc2[C@H]2CCCN2c2ccn3ncc1c3n2"
measured_value = "< 5 nM"


Per the record, CONC(=O)c1cnn2ccc(N3CCC[C@@H]3c3cc(F)cnc3OC)nc12 has IC50 of 12.1 nM
